- EXPERIMENTAL TARGET: HIF PHD2 (Homo sapiens, UniProt Q9GZT9)
- Sequence (Q9GZT9 whole entry): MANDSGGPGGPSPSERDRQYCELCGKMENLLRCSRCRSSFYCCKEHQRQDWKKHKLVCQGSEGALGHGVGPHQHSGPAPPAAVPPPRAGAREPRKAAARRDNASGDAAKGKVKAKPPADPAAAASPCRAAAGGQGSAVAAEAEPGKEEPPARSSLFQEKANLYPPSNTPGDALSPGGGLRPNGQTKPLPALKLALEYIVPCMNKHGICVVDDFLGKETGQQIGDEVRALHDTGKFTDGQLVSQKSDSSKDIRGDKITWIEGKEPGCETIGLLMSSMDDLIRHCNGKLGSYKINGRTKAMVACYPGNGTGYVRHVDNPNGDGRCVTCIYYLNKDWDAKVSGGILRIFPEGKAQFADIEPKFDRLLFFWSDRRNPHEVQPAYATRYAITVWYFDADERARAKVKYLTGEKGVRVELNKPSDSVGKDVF
MEASUREMENT KIND: IC50

Record excerpt, results attached:
compound="CCOP(C)(=O)CNC(=O)c1ncc(C(=O)NC(c2ccccc2)c2ccccc2)c(O)n1 (stereo not drawn)" result="0.5 to 20 nM"
compound=O=C(CNC(=O)c1ncc(C(=O)NC(c2ccccc2)c2ccccc2)c(O)n1)OCc1ccccc1 result="0.5 to 20 nM"
compound=O=C(O)CNC(=O)c1ncc(NC(=O)C(c2ccccc2)c2ccccc2)c(O)n1 result="0.5 to 20 nM"
compound=CP(=O)(O)c1cnn(-c2ncc(C(=O)NC(c3ccccc3)c3ccccc3)c(O)n2)c1 result="0.5 to 20 nM"
compound=CCOP(=O)(CNC(=O)c1ncc(C(=O)NC(c2ccccc2)c2ccccc2)c(O)n1)OCC result="20 to 100 nM"

Now let's try a different one.
[Q] Tell me the measured IC50 of O=C(NCP(=O)(O)O)c1ncc(C(=O)NC(c2ccccc2)c2ccccc2)c(O)n1 , please.
[A] 20 to 100 nM
